experiment: Levothyroxine solubilization in aqueous amino acid solutions; type: physicochemical; conditions: aqueous aspartic acid solution, aqueous buffer, aspartic acid 4 mg/mL in water

{"Compound structure string": "N[C@@H](Cc1cc(I)c(Oc2cc(I)c(O)c(I)c2)c(I)c1)C(=O)O", "solubility (µg/mL)": 100}

src = patent US20200237695A1
